- Test system: SNB-19
- run_description: NCI tumour cell line growth inhibition, 48 h
Calls of active or inactive are those of the source. Cut-off read from the data, not from the text of the source: active = GI50 up to about 1.1 µM and inactive = higher.
# GI50 values compiled below

molecule	GI50
COc1ccc(CC2COc3cc(O)cc(O)c3C2=O)cc1O (stereo unspecified)	4.83 µM (inactive)
N#C/C(N)=C(C#N)/N=C/Nc1ccc(N)cc1	> 100 µM (inactive)
COC(=O)C1=NC(=S)NC(c2ccccc2)C1c1nc2ccccc2o1 (stereo unspecified)	> 50 µM (inactive)
Cc1ccc(O)c(C(c2ccc([N+](=O)[O-])cc2)c2cc(C)ccc2O)c1	13.1 µM (inactive)
Cc1ccc(S(=O)(=O)OCCOCCOCCOCCOCCOS(=O)(=O)c2ccc(C)cc2)cc1	> 100 µM (inactive)
FC(F)(F)c1ccc(/N=N/N2CCCC2)cc1	> 100 µM (inactive)
COC(=O)C1CCC(=O)C(Sc2ccccc2)C1 (stereo unspecified)	> 100 µM (inactive)
CCC(CC)n1c(C)nc2c1C(=O)c1ccccc1C2=O	71.1 µM (inactive)
CCOC(=O)c1sc2c(c1O)c(=O)n(-c1ccccc1)c(=S)n2-c1ccccc1	> 100 µM (inactive)
CN(C(=O)Cc1ccccc1)n1cn[n+](CC(=O)OC(C)(C)C)c1	> 10 µM (inactive)
COc1cc(C2(C)SCCCS2)cc(OC)c1OC	> 100 µM (inactive)
